Biological target: Abl kinase (SEQ ID NO: 1) (Homo sapiens, UniProt P00519)
Sequence (P00519 with tags, fused parts or gaps): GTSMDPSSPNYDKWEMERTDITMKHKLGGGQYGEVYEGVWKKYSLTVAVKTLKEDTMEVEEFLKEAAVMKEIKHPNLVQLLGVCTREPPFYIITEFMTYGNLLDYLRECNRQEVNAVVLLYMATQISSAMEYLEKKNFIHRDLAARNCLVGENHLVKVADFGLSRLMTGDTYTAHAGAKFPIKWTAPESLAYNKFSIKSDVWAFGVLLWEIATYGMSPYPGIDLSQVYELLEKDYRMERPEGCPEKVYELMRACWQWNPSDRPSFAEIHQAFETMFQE

| compound | IC50 |
| --- | --- |
| Cn1cc(-c2cc(Oc3ccc(NC(=O)NC4CC(=O)N(C(C)(C)C)C4)c(F)c3)ccn2)cn1 (stereo not shown) | < 1000 nM |
| Cn1cc(-c2cc(Oc3ccc(NC(=O)Nc4cncc(C(F)(F)F)c4)c(F)c3)ccn2)cn1 | < 100 nM |
| Cn1cc(-c2cc(Oc3ccc(NC(=O)Nc4ccn(C(C)(C)C)c4)c(F)c3)ccn2)cn1 | < 100 nM |
| Cn1cc(-c2cc(Oc3ccc(NC(=O)Nc4nnc(C(C)(C)C)s4)c(F)c3)ccn2)cn1 | < 100 nM |

* * *

These records show IC50 for C-Met kinase (SEQ ID NO:10) (Homo sapiens).
experimental-readout: IC50

| given-smiles | endpoint-result |
| --- | --- |
| Cn1cc(-c2cc(Oc3ccc(NC(=O)Nc4noc5ccccc45)c(F)c3)ccn2)cn1 | < 10 µM |
| Cn1cc(-c2cc(Oc3ccc(NC(=O)Nc4cnn(C5CCCC5)c4)c(F)c3)ccn2)cn1 | < 10 µM |
| Cn1cc(-c2cc(Oc3ccc(NC(=O)Nc4cc(C(F)(F)F)c[nH]c4=O)c(F)c3)ccn2)cn1 | < 1 µM |
| Cc1c(NC(=O)Nc2ccc(Oc3ccnc(-c4cnn(C)c4)c3)cc2F)cnn1C(C)(C)C | < 10 µM |

* * *

compounds and their reported IC50
Target: C-Met kinase (SEQ ID NO:10) (Homo sapiens, UniProt P08581)
Sequence (P08581 with tags, fused parts or gaps): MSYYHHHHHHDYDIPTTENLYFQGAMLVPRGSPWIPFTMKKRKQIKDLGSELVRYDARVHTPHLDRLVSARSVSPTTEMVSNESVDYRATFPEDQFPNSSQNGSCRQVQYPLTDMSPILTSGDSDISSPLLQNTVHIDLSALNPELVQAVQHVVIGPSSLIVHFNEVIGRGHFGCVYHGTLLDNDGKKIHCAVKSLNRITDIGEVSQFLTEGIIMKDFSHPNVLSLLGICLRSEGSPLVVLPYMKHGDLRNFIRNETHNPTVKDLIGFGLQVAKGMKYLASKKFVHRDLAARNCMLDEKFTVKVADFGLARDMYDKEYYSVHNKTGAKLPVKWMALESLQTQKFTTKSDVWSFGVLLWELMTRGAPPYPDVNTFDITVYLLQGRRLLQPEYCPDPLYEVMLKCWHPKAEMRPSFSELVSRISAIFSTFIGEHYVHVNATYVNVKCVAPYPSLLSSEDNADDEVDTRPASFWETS

| compound | IC50 |
| --- | --- |
| Cn1cc(-c2cc(Oc3ccc(NC(=O)Nc4cccc(C(F)(F)F)c4)c(F)c3)ccn2)cn1 [Example 3] | < 1000 nM |
| Cn1cc(-c2cc(Oc3ccc(NC(=O)Nc4cc(C(F)(F)F)cnc4-c4cnn(C)c4)c(F)c3)ccn2)cn1 [Example 42] | < 1000 nM |
| Cn1cc(-c2cc(Oc3ccc(NC(=O)Nc4cncc(C(F)(F)F)c4)c(F)c3)ccn2)cn1 [Example 21] | < 1000 nM |
| Cc1nn(C(C)C)cc1NC(=O)Nc1ccc(Oc2ccnc(-c3cnn(C)c3)c2)cc1F [Example 20] | < 10000 nM |
| CC(C)n1cc(NC(=O)Nc2ccc(Oc3ccnc(-c4cnn(C)c4)c3)cc2F)c(C(F)(F)F)n1 [Example 18] | < 10000 nM |

* * *

Target: BaF3 cells transfected with T315I p210 BCR-Abl (Homo sapiens, UniProt P00519, T315I, cells depend on it)
Construct: fused on or other part: P11274 (Breakpoint cluster region protein)
Experiment: Ba/F3 p210 T315I whole cell proliferation assay
Format: cell-based
Settings: 72 hours, Cell Titer Blue; read-out: Whole Cell Antiproliferation IC50, Ba/F3 p210 T315I whole cell proliferation assay
Description: BaF3 cells (parental or transfected with the following: wild type p210 BCR-Abl and T315I p210 BCR-Abl was obtained from Professor Richard Van Etten (New England Medical Center, Boston, Mass.). Briefly, cells were grown in RPMI 1640 supplemented with 10% characterized fetal bovine serum (HyClone, Logan, Utah) at 37 degrees Celsius, 5% CO2, 95% humidity. Cells were allowed to expand until reaching 80% saturation at which point they were subcultured or harvested for assay use. […]

| given-smiles | GI50 |
| --- | --- |
| Cn1cc(-c2cc(Oc3ccc(NC(=O)Nc4cncc(C(F)(F)F)c4)cc3)ccn2)cn1 | < 100 nM |
| Cn1cc(-c2cc(Oc3ccc(NC(=O)Nc4cnn(C5CCCC5)c4)c(F)c3)ccn2)cn1 | < 100 nM |
| Cn1cc(-c2cc(Oc3ccc(NC(=O)Nc4cc(C(C)(C)C)nn4C)c(F)c3)ccn2)cn1 | < 100 nM |
| Cn1cc(-c2cc(Oc3ccc(NC(=O)Nc4cncc(C(F)(F)F)c4)c(F)c3)ccn2)cn1 | < 100 nM |
| Cn1cc(-c2cc(Oc3ccc(NC(=O)Nc4nc5ccc(F)cc5s4)c(F)c3)ccn2)cn1 | < 100000 nM |
| Cn1cc(-c2cc(Oc3ccc(NC(=O)Nc4ccn(C(C)(C)C)c4)c(F)c3)ccn2)cn1 | < 1000 nM |
| Cn1cc(-c2cc(Oc3ccc(NC(=O)Nc4noc5ccccc45)c(F)c3)ccn2)cn1 | < 100000 nM |
| Cn1cc(-c2cc(Oc3ccc(NC(=O)Nc4cc(C(C)(C)C)no4)c(F)c3)ccn2)cn1 | < 100 nM |
